Recorded %Inh values for a group of compounds are listed next.
Test system: OSR1
Construct: gene OXSR1
Conditions: concentration: 1 μM, replicates: in singlicate; n = 1;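 note: KINOMEscan kinase panel screen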
Please answer using a numeric value trailed by its unit.

Answered cases to consult:
{"compound": "O=C(Nc1n[nH]c2nc(-c3nccs3)c(Br)cc12)C1CCCC1", "measurement.target": "OSR1", "%Inh": "7%"}
{"compound": "COc1ccc(Nc2nccc(-c3cccc(NC(=O)c4cc5cc(F)ccc5[nH]4)c3)n2)cc1", "measurement.target": "OSR1", "%Inh": "18%"}
{"compound": "COc1cccc(-c2cc(-c3c[nH]nc3-c3ccccn3)ccn2)c1", "measurement.target": "OSR1", "%Inh": "0%"}
{"compound": "COc1ccccc1-c1ccc2c(NC(=O)C3CC3)n[nH]c2n1", "measurement.target": "OSR1", "%Inh": "64%"}
{"compound": "O=C(Nc1ccc2c(c1)OCO2)NC1CCN(c2ccnc(Nc3ccc(F)cc3)n2)C1 (stereo not drawn)", "measurement.target": "OSR1", "%Inh": "0%"}

Next:
Q: What value of %Inh has been recorded for this entry: COc1cccc(NC(=O)NC2CCN(c3ccnc(Nc4ccc(F)cc4)n3)C2)c1 (stereo not drawn)
A: 4%

* * *

Tested on: RIPK1
Settings: concentration: 1 μM, replicates: in singlicate; n = 1
measurement.type: %Inh (%)
Answer with a number only, understood to be in %.

{"molecule": "Nc1nc(-c2nccs2)c(-c2ccnc3ccccc23)s1 [GW693542]", "readout.unit": "%", "%Inh": 0}

Q: Quick one: %Inh for `Cn1ccc2ncnc(Oc3ccc(Nc4nc5ccccc5[nH]4)cc3)c21` ?
A: 0

Q: Using the record for COc1ccc2nc(-c3cccc(C)n3)nc(Nc3ccncc3)c2c1 [GSK204919] , report its %Inh.
A: 0

* * *

Test system: VEGFR2
Construct: gene KDR
Settings: concentration: 1 μM, replicates: in singlicate; n = 1
Binary call on %Inh: condition met from 6% upward, condition not met beneath that.

{"mol": "Cc1cccc(-c2nc(Nc3cccc(C(N)=O)c3)c3ccccc3n2)n1", "label.value": "condition not met"}

Q: Can `Clc1cc(Cl)cc(Nc2ccnc(Nc3cc(Cl)cc(Cl)c3)n2)c1` be said to have %Inh at or above 6%?
A: condition met

Q: Does the reported %Inh for `Cc1cc(N2Cc3ccccc3C2)nc(Nc2ccc(S(=O)(=O)N3CCOCC3)cc2)n1.Cl` fall at or above the 6% mark?
A: condition not met

Q: Identify whether the reported %Inh of the following compound is 6% or greater: `Cc1c(Cn2ccn3c(=O)cc(N4CCOCC4)nc23)cccc1C(F)(F)F`
A: condition not met

* * *

Test system: GCN2(Kin.Dom.2,S808G)
Construct: gene EIF2AK4
Details: concentration: 1 μM, replicates: in singlicate; n = 1
Could you label it class 1 if measured %Inh is 6% or higher, and class 0 otherwise?

Solved entries (count: 3):
{"compound": "Cl.Oc1ccc(-c2nc(-c3ccccc3)[nH]c2-c2ccncc2)cc1 [SB-428218]", "label.value": "class 1"}
{"compound": "Cc1cccc(-c2nc(-c3ccc(S(C)(=O)=O)cc3)sc2-c2ccnc(NCCc3ccccc3)c2)c1", "label.value": "class 1"}
{"compound": "O=c1cc(N2CCOCC2)nc2n(Cc3cccc(Cl)c3Cl)ccn12 [GSK2286295]", "label.value": "class 0"}

Q: Could you tell me if the measured %Inh of Cc1cccc(-c2nc(C)cc(Nc3ccncc3)n2)n1 [GSK257997] reaches 6% or more?
A: class 0

Q: Would you say CCn1c(-c2cccnc2O)nc2cnccc21 [SB-736715] shows %Inh at minimum 6%?
A: class 1

Q: Threshold query (%Inh >= 6%) on Cc1c(O)cccc1Nc1ccnc2ccc(C(F)(F)F)cc12.Cl [GW466413]
A: class 1
